Source of measurements: the supplement of paper PMC9112550

- System: Escherichia coli TOP10;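 also: peptides expressed intracellularly from a pBAD plasmid library in pooled LB shake-flask culture, induced with 0.3% L-arabinose, DNA abundance read by NGS, three biological replicates, DESeq2 with apeglm shrinkage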
- Test: shrunken log2 fold change of peptide-encoding DNA abundance (4.5 h post-induction vs induction); higher = less antimicrobial activity (less host growth inhibition)
- Condition: time post-induction: 4.5 h; library: site-saturation at positions 5, 18, 19, 20
Measured Metric: shrunken log2 fold change

Sequence Data | Measured Metric | Reading
RRIRIRPPRLPRPRPRPPVDPRP | shrunken log2 fold change | -0.111
RRIRIRPPRLPRPRPRPLFSPRP | shrunken log2 fold change | -0.423
RRIRWRPPRLPRPRPRPCCVPRP | shrunken log2 fold change | -0.134
RRIRKRPPRLPRPRPRPECGPRP | shrunken log2 fold change | 1.01
RRIRWRPPRLPRPRPRPYINPRP | shrunken log2 fold change | -0.536
RRIRCRPPRLPRPRPRPSTDPRP | shrunken log2 fold change | -0.348
RRIRHRPPRLPRPRPRPVGVPRP | shrunken log2 fold change | -0.00247
RRIRERPPRLPRPRPRPGSDPRP | shrunken log2 fold change | -0.369
RRIRIRPPRLPRPRPRPGFNPRP | shrunken log2 fold change | -0.135
RRIRWRPPRLPRPRPRPHWIPRP | shrunken log2 fold change | -0.434
RRIRLRPPRLPRPRPRPASHPRP | shrunken log2 fold change | 0.0961
RRIRWRPPRLPRPRPRPPMNPRP | shrunken log2 fold change | -0.0715
RRIRVRPPRLPRPRPRPYFAPRP | shrunken log2 fold change | -0.246
RRIRKRPPRLPRPRPRPHDYPRP | shrunken log2 fold change | 0.0206
RRIRRRPPRLPRPRPRPLDDPRP | shrunken log2 fold change | 0.0512
